- tested on: SRPK1 (Homo sapiens, UniProt Q96SB4)
- Sequence (Q96SB4 whole entry): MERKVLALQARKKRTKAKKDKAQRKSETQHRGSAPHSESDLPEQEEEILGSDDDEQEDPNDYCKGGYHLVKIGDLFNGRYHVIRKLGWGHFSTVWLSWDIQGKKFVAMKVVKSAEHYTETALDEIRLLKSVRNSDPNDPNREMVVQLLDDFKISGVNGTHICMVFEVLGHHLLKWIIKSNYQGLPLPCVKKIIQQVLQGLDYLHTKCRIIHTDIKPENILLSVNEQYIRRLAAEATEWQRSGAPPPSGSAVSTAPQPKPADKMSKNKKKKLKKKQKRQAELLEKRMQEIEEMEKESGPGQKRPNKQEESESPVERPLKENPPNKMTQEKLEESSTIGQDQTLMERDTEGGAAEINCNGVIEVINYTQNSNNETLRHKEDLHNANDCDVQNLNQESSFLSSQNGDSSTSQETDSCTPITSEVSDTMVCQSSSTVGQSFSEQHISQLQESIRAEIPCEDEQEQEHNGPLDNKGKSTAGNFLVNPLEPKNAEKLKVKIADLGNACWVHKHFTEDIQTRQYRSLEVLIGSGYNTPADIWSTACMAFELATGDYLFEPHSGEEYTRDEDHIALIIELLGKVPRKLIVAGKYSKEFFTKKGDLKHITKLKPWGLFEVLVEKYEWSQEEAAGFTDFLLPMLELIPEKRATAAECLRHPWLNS
pIC50: −log10 of the molar value.
Known pIC50 of a selection of molecules
attribute measured: pIC50

smiles_representation=Cc1ccc(CN2CCN(c3ccc(C(F)(F)F)cc3NC(=O)c3ccccn3)CC2)o1 attribute_measured=pIC50 value_observed=6.84
smiles_representation=O=C(Nc1cc(C(F)(F)F)ccc1N1CCN(Cc2cocn2)CC1)c1cocn1 attribute_measured=pIC50 value_observed=6.93
smiles_representation=O=C(Nc1cc(C(F)(F)F)ccc1N1CCN(Cc2cnoc2)CC1)c1ccccn1 attribute_measured=pIC50 value_observed=8.06
smiles_representation=O=C(Nc1cc(C(F)(F)F)ccc1N1CCN(Cc2cncs2)CC1)c1ccccn1 attribute_measured=pIC50 value_observed=9.30
smiles_representation=O=C(Nc1cc(C(F)(F)F)ccc1N1CCN(Cc2ccoc2)CC1)c1ccccn1 attribute_measured=pIC50 value_observed=8.28
smiles_representation=O=C(Nc1cc(C(F)(F)F)ccc1N1CCN(Cc2cocn2)CC1)c1ccco1 attribute_measured=pIC50 value_observed=7.22
smiles_representation=O=C(Nc1cc(C(F)(F)F)ccc1N1CCN(Cc2cocn2)CC1)c1cc[nH]n1 attribute_measured=pIC50 value_observed=7.08
smiles_representation=O=C(Nc1cc(C(F)(F)F)ccc1N1CCN(Cc2ccco2)CC1)c1ccncc1 attribute_measured=pIC50 value_observed=6.41
